# Measured On: Sodium- and chloride-dependent betaine transporter (Homo sapiens, UniProt P48065, A321M)
# Measurement Notes: Inhibition of human BGT1 A321M mutant expressed in tsA201 cells assessed as reduction in [3H]GABA uptake after 3 mins by scintillation counting method
Observation Type: pIC50
Bear in mind: pIC50 is minus log10 of a mol/L concentration; give just that figure.

Recorded pIC50 (compound O=C(NC1CCN(Cc2ccccc2)CC1)c1ccc(Cl)cc1Cl ): 5.30

====

We begin with a simple list: items and their reported pIC50.
# Measured On: Sodium- and chloride-dependent GABA transporter 2 (Homo sapiens)
# Sequence (Q9NSD5 whole entry): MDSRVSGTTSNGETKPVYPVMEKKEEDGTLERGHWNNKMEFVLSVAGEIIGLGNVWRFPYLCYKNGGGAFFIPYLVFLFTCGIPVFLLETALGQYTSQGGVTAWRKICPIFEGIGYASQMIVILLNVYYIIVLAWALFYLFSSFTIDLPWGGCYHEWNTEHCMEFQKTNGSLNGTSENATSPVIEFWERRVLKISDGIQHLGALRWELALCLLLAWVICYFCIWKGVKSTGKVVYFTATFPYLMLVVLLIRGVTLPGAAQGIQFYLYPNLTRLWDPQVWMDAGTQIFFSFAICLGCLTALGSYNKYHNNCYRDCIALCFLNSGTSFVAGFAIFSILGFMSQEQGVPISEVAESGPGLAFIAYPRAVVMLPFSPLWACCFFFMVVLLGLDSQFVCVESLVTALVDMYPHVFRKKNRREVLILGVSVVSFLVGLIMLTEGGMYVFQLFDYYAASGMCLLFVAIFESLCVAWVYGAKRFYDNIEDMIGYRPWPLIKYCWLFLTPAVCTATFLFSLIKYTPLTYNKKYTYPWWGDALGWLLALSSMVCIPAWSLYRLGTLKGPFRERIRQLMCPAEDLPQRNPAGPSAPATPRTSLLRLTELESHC
# Measurement Notes: Inhibition of human GAT2 expresses in tsA201 cells assessed as reduction in [3H]GABA uptake after 3 mins by scintillation counting method
# Assay type: cell-based
# Cond: read-out: IC50
pIC50: −log10 of the molar value.

Sample records with pIC50:
N#Cc1ccccc1CN1CCC(NC(=O)c2ccc(Cl)cc2Cl)CC1 | < 4.30
CC(C)(C)OC(=O)CN1CCC(NC(=O)c2ccc(Cl)cc2Cl)CC1 | < 3.00
O=C(NC1CCN(Cc2ccc([N+](=O)[O-])cc2)CC1)c1ccc(Cl)cc1Cl | < 4.00

Recorded result, CCOP(=O)(CCCN1CCC(NC(=O)c2ccc(Cl)cc2Cl)CC1)OCC , pIC50: < 3.00

Please fill in: pIC50 reported for N#CCCCN1CCC(NC(=O)c2ccc(Cl)cc2Cl)CC1 = < 3.00

Lookup result for O=C(NC1CCN(Cc2ccccc2[N+](=O)[O-])CC1)c1ccc(Cl)cc1Cl ; measured pIC50: < 4.00

The value of pIC50 measured for the molecule CCN1CCC(NC(=O)c2ccc(Cl)cc2Cl)CC1 turned out to be < 3.00

Looking up O=C(NC1CCNCC1)c1ccc(Cl)cc1Cl , I found its pIC50 recorded as < 3.00

Input O=C(NC1CCN(Cc2ccncc2)CC1)c1ccc(Cl)cc1Cl . Output pIC50: < 3.00

Summary for this molecule, O=C(NC1CCN(Cc2ccccc2)CC1)c1ccc(F)cc1 : pIC50 is < 3.52

meta.source: ChEMBL document CHEMBL4028872
